These data points were gathered from PubChem BioAssay AID463173.

System: Wild type
Assay Explanation: S. aureus survival, RN4220 and DeltatarO strains – OD600, teichoic acid synthesis inhibitors, primary screen (AID 463173)
Details: S. aureus RN4220 wild type/DeltatarO growth, OD600, 18 h, stronger effect = lower value, screened at 18.75 µg/mL (by protocol)
About 1,700 (3.3%) of roughly 52,000 compounds were called active. The entries come from a sample that favours actives as a whole.
Mark criterion met for survival under 80%, criterion not met if at or over.

Check out these entries, answers already filled in.
INSERT INTO measurements (molecule, answer_label) VALUES
  ('CCn1ccc2cc(S(=O)(=O)N3CCC(C(=O)NCc4ccc(OC(C)C)cc4)CC3)ccc21', 'criterion met'),
  ('O=C(Cn1nc(-c2nccc3ccccc23)oc1=O)N1CCCc2ccccc21', 'criterion not met');

Q: Is the reported survival for COc1ccc(OCCCn2c(=O)oc3ccc(C)cc32)cc1 strictly below 80%?
A: criterion met

Q: Please do the same for FC(F)(F)c1cc(-c2ccccc2)nc2cc(-c3ccccc3)nn12 as well.
A: criterion met

Q: How about COc1ccc2c(c1)c(=O)c(C(=O)c1ccc(F)cc1)cn2CC(=O)Nc1ccc2c(c1)OCO2 ?
A: criterion not met

Q: Also COc1ccccc1C(=O)Nc1cccc(C(=O)OCc2cc(=O)n3ccsc3n2)c1 , if possible.
A: criterion met

----------
Tested on: Wild type
Assay Explanation: S. aureus survival, RN4220 and DeltatarO strains – OD600, teichoic acid synthesis inhibitors, primary screen (AID 463173)
Details: S. aureus RN4220 wild type/DeltatarO growth, OD600, 18 h, stronger effect = lower value, screened at 18.75 µg/mL (by protocol)
The campaign covered roughly 52,000 compounds. About 1,700 (3.3%) were called active. The full list was thinned out, with actives kept by preference.
Reported Property: survival (%)
Numbers only, in %.

Field: example entries. Status: answers known.
INSERT INTO results (compound, system_name, readout_value) VALUES
  ('CCOC(=O)CSc1nc2sc3c(c2c(=O)n1-c1ccccc1)CCC(C(C)(C)C)C3 (stereo unspecified)', 'Wild type', 70),
  ('Cc1ccc(C(=O)Nc2ccc(-c3nc4ccccc4s3)cc2C)cc1C', 'Wild type', 73),
  ('COc1ccc(N2CC(C(=O)NC3=NCCS3)CC2=O)cc1 (stereo unspecified)', 'Wild type', 102),
  ('COc1ccc(-c2nc3sc(CCNC(=O)C(=O)Nc4ccc(C)c(C)c4)c(C)n3n2)cc1', 'Wild type', 117),
  ('O=C(CSc1nc2ccsc2c(=O)n1Cc1ccccc1Cl)NCc1ccc(Cl)cc1', 'Wild type', 75),
  ('O=C(c1cc2nc(-c3ccccc3)cc(-c3ccccc3)n2n1)N1CCCC1', 'Wild type', 100),
  ('O=C(CSCc1cc(=O)c2ccccc2[nH]1)Nc1cccc(C(F)(F)F)c1', 'Wild type', 124),
  ('Cc1oc2c(c(C)cc3oc(=O)c(CC(=O)NCCc4ccccc4)c(C)c32)c1C', 'Wild type', 112);

Give one value of survival per listed compound.
1. CCCSc1nc2sc3c(c2c(=O)n1-c1ccc(C)c(Cl)c1)CCN(C(C)=O)C3
2. CCCSc1nc2sc3c(c2c(=O)n1-c1ccc(C)cc1)CCCC3
3. CCOc1ccc(C(=O)/C=C/c2cn(CC(O)CN3CCCCCC3)c3ccccc23)cc1 (stereo unspecified)
4. COc1ccc(C(=O)/C=C/c2cn(CC(O)CN3CCCCCC3)c3ccccc23)cc1OC (stereo unspecified)
5. Cc1ccc(C(=O)/C=C/c2cn(CC(O)CN3CCCCCC3)c3ccccc23)cc1 (stereo unspecified)

A:
87
5
26
96
28
